Species: Cavia porcellus
EXPERIMENT_DESCRIPTION: Positive inotropic activity in isolated left guinea pig atria.
Type: functional
RECORDED_CONDITIONS: read-out: ED50 (the source's name)
pEC50: −log10 of the molar value.
ASSAY_METRIC: pEC50

Sample answers from the record:
COc1ccc(-c2ccccn2)c2ccc(O)nc12 : 4.46
Br.Oc1ccc2c(-c3cccnc3)ccc(O)c2n1 : 5.17
Oc1ccc2c(-c3cccnc3)cccc2n1 : 5.89
Cc1[nH]c(=O)c(C#N)cc1-c1ccncc1 : 4.85
COc1cccc2c(-c3ccncc3)cc(O)nc12.Cl : 4.42
Cl.Oc1ccc2c(-c3ccncc3)ccc(O)c2n1 : 4.70

(A) COc1cc([S+](C)[O-])ccc1-c1nc2cccnc2[nH]1 (configuration not stated)
(B) COc1ccc(N)c2ccc(O)nc12.Cl
(C) COc1ccc(-c2ccccn2)c2c1NC(=O)CC2
(D) COc1ccc(-c2ccncc2)c2ccc(O)nc12.Cl
Order each entry by recorded pEC50, climbing from the minimum. # list labels per requested ordering
B, D, C, A

====

Species on record: Cavia porcellus
EXPERIMENT_DESCRIPTION: Positive inotropic activity in isolated left guinea pig atria.
Format: functional
RECORDED_CONDITIONS: read-out: ED50 (the source's name)
pEC50: −log10 of the molar value.
ASSAY_METRIC: pEC50

# count of solved cases: 3
COc1ccc(-c2cccnc2)cc1NC(=O)CC(C)=O : 5.08
COc1ccc(-c2cccnc2)c2ccc(O)nc12.Cl : 5.24
COc1ccc(-c2ccncc2)c2c1NC(=O)CC2 : 4.51

(I) Oc1nc2ccccc2cc1-c1cccnc1
(II) Cl.Oc1cc(-c2ccncc2)c2cccc(O)c2n1
(III) COc1ccc(-c2cccnc2)c2c1NC(=O)CC2
Order the 3 molecules from highest to lowest pEC50. Reply with the labels, ordered as the question asks.
III, II, I
